Source of measurements: patent US20170189504A1

measurement_target: HLA-A*24 (human)
assay_explanation: UV-ligand exchange, anti-b2m ELISA

- binder: "RYPDNLKHL [SEQ ID NO: 286 peptide …]"
  peptide exchange yield: "20 to 49%"
- binder: "LYHDIFSRL [SEQ ID NO: 271 peptide …]"
  peptide exchange yield: "> 75%"
- binder: "VYVGGGQIIHL [SEQ ID NO: 174 peptide …]"
  peptide exchange yield: "50 to 75%"
- binder: "TYIKPISKL [SEQ ID NO: 273 peptide …]"
  peptide exchange yield: "50 to 75%"
- binder: "IYSWILDHF [SEQ ID NO: 173 peptide …]"
  peptide exchange yield: "> 75%"
- binder: "TYLRDQHFL [SEQ ID NO: 187 peptide …]"
  peptide exchange yield: "> 75%"
- binder: "AYLHSHALI [SEQ ID NO: 274 peptide …]"
  peptide exchange yield: "> 75%"
- binder: "EYQENFLSF [SEQ ID NO: 206 peptide …]"
  peptide exchange yield: "50 to 75%"
